system: 786-0 renal; experiment: NCI tumour cell line growth inhibition, 48 h; in the data active means GI50 below about 0.43 µM; inactive means the rest
Your answer must be one of the following: y = active, n = inactive

{"columns": ["Compound", "Assayed System", "Class Label"],
 "data": [
  ["CC(C)=CCC/C(C)=C/CC/C(C)=C/CC/C=C(\\C)CC/C=C(\\C)CCC(=O)Nc1ccn(C2OC(CO)C(O)C2(F)F)c(=O)n1 (configuration not stated)", "786-0 renal", "y"],
  ["CN1CCN(CC(O)COc2c(Br)c(Br)c(Br)c3c2OC(C)(C)C3)CC1 (configuration not stated)", "786-0 renal", "n"],
  ["COc1ccc(C(=O)N2c3ccccc3Sc3ccccc32)c(OC)c1", "786-0 renal", "n"],
  ["O=C([CH-]C(=O)c1ccccc1)c1ccccc1.O=C([CH-]C(=O)c1ccccc1)c1ccccc1.[OH-].[OH-].[Ti+4]", "786-0 renal", "n"],
  ["O=c1[nH]cnc2c(C3NC(CO)C(O)C3O)c[nH]c12 (configuration not stated)", "786-0 renal", "n"],
  ["C[CH2][Pb]([CH2]C)([CH2]C)[O]C(=O)c1ccc2ccccc2n1", "786-0 renal", "n"]
]}

Consider the record given below.
Input line: # outcome recorded in this test, key = "COC(=O)c1nc(-c2ccccc2)oc1S(=O)(=O)n1nc(C)cc1N"
Output line: n
